- target under test: Kras and SOS1 (biotin-tagged human Kras loaded with GDP, His-tagged human SOS1) (Homo sapiens, UniProt P01116, G12D)
- Construct: made in house; host or cells: E. coli (stated for Kras only)
- Sequence (P01116 1-188 isoform P01116-2 G12D): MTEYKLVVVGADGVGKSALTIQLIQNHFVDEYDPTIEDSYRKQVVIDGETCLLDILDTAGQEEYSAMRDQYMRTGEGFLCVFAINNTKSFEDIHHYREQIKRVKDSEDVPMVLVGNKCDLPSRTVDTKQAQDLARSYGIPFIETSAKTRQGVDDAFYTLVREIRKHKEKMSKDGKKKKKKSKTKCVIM
- procedure text: Protein-protein interaction inhibition between Kras and SOS1 (KrasGl2D-SOS PPI) using AlphaScreen
- Type: binding
- measurement setup: AlphaScreen; biotin-tagged human Kras loaded with GDP, His-tagged human SOS1; read-out: KRAS G12D-SOS PPI IC50
Starred links: 1 amine or outer side, 2 acyl side, 3 side chain; linkers in the order of their positions; H or OH if unused. Positions of bridges follow the written chain, without caps; N, C: chain ends. Non-standard residues stand in square brackets, D forms with d. Residues, ends and D or L forms follow the SMILES beside them. *: point of attachment. hPhe(3,5-F2-4-CF3) = N[C@@H](CCc1cc(F)c(C(F)(F)F)c(F)c1)C(=O)O; hPhe(3-Cl-4-CF3) = N[C@@H](CCc1ccc(C(F)(F)F)c(Cl)c1)C(=O)O; hPhe(3-F,4-CF3) = N[C@@H](CCc1ccc(C(F)(F)F)c(F)c1)C(=O)O; NMePhe(4-CF3) = CN[C@@H](Cc1ccc(C(F)(F)F)cc1)C(=O)O; NMePhe(4-Me) = CN[C@@H](Cc1ccc(C)cc1)C(=O)O; Phe(3-I) = N[C@@H](Cc1cccc(I)c1)C(=O)O; dβ3hPip = O=C(C[C@H]1CCCCN1[*:1])[*:2]; X70 = CC(C)(O)COCCN(CC(=O)[*:2])[*:1]; NMeCha = CN[C@@H](CC1CCCCC1)C(=O)O; NMeI = CC[C@H](C)[C@H](NC)C(=O)O; dNMeF = CN[C@H](Cc1ccccc1)C(=O)O; hPhe = N[C@@H](CCc1ccccc1)C(=O)O; NMeD = CN[C@@H](CC(=O)O)C(=O)O; NMeL = CN[C@@H](CC(C)C)C(=O)O; Oxazolidin(3-yl) = C1CN(*)CO1; NMeV = CN[C@H](C(=O)O)C(C)C; NMeA = CN[C@@H](C)C(=O)O; NMeAib = CNC(C)(C)C(=O)O; Piperidide = C1CCN(*)CC1; Ac5c = NC1(C(=O)O)CCCC1; Aze = O=C(O)[C@@H]1CCN1; Sar = CNCC(=O)O
recorded metric: pIC50
pIC50 (log units): -log10 of the concentration in mol/L.

{"compound": "CC[C@H](C)[C@@H]1NC(=O)[C@H](CC(C)C)N(C)C(=O)C[C@@H](C(=O)N(C)C)N(C)C(=O)[C@H]([C@@H](C)CC)N(C)C(=O)C2(CCCC2)NC(=O)CN(CCOCC(C)(C)O)C(=O)[C@H](CCc2ccc(C(F)(F)F)c(Cl)c2)NC(=O)CN(C)C(=O)[C@H](Cc2ccc(C)cc2)N(C)C(=O)[C@@H]2CCN2C(=O)[C@H](C)N(C)C1=O [Compound 2034] ([NMeL]I[NMeA][Aze][NMePhe(4-Me)][Sar][hPhe(3-Cl-4-CF3)][X70][Ac5c][NMeI][NMeD]-NMe2; lactam N-11)", "endpoint value": 8.70}

## Task State, in one line, measured pIC50 of CC[C@H](C)[C@@H]1NC(=O)[C@H](CC(C)C)N(C)C(=O)C[C@@H](C(=O)N2CCOC2)N(C)C(=O)[C@H](C(C)C)N(C)C(=O)C2(CCCC2)NC(=O)[C@@H]2CCCN2C(=O)[C@H](CCc2ccc(C(F)(F)F)c(Cl)c2)NC(=O)CN(C)C(=O)[C@H](CC2CCCCC2)N(C)C(=O)[C@@H]2CCN2C(=O)[C@H](C)N(C)C1=O [Compound 1329] ([NMeL]I[NMeA][Aze][NMeCha][Sar][hPhe(3-Cl-4-CF3)]P[Ac5c][NMeV][NMeD]-{Oxazolidin(3-yl)}; lactam N-11)
## Result 8.77

## Task State, in one line, measured pIC50 of CC[C@H](C)[C@@H]1NC(=O)[C@H](CC(C)C)N(C)C(=O)C[C@@H](C(=O)N2CCCCC2)N(C)C(=O)[C@H](CC(C)C)NC(=O)C(C)(C)N(C)C(=O)[C@H](CCc2ccccc2)NC(=O)[C@H](Cc2cccc(I)c2)NC(=O)CN(C)C(=O)[C@H](CC2CCCCC2)N(C)C(=O)[C@@H]2CCN2C(=O)CN(C)C1=O [Compound 931] ([NMeL]I[Sar][Aze][NMeCha][Sar][Phe(3-I)][hPhe][NMeAib]L[NMeD]-Piperidide; lactam N-11)
## Result 6.57

## Task State, in one line, measured pIC50 of CC[C@H](C)[C@@H]1NC(=O)[C@H](CC(C)C)N(C)C(=O)C[C@H]2CCCCN2C(=O)[C@H](C(C)C)N(C)C(=O)C2(CCCC2)NC(=O)[C@@H]2CCCN2C(=O)[C@H](CCc2ccc(C(F)(F)F)c(F)c2)NC(=O)CN(C)C(=O)[C@H](CC2CCCCC2)N(C)C(=O)CN(C)C(=O)CN(C)C1=O [Compound 142] (cyclo([Ac5c][NMeV][dβ3hPip][NMeL]I[Sar][Sar][NMeCha][Sar][hPhe(3-F,4-CF3)]P))
## Result 7.42

## Task State, in one line, measured pIC50 of CC[C@H](C)[C@@H]1NC(=O)[C@H](C)N(C)C(=O)C[C@@H](C(=O)N2CCCCC2)N(C)C(=O)[C@H]([C@@H](C)CC)N(C)C(=O)C2(CCCC2)NC(=O)[C@@H](Cc2ccccc2)N(C)C(=O)[C@H](CCc2cc(F)c(C(F)(F)F)c(F)c2)NC(=O)CN(C)C(=O)[C@H](Cc2ccc(C(F)(F)F)cc2)N(C)C(=O)[C@@H]2CCN2C(=O)[C@H](C)N(C)C1=O [Compound 1992] ([NMeA]I[NMeA][Aze][NMePhe(4-CF3)][Sar][hPhe(3,5-F2-4-CF3)][dNMeF][Ac5c][NMeI][NMeD]-Piperidide; lactam N-11)
## Result 6.55

---

- target under test: Kras and SOS1 (biotin-tagged human Kras loaded with GDP, His-tagged human SOS1) (Homo sapiens, UniProt P01116, G12D)
- Construct: made in house; host or cells: E. coli (stated for Kras only)
- procedure text: Protein-protein interaction inhibition between Kras and SOS1 (KrasGl2D-SOS PPI) using AlphaScreen
- Assay type: binding
- measurement setup: AlphaScreen; biotin-tagged human Kras loaded with GDP, His-tagged human SOS1; read-out: KRAS G12D-SOS PPI IC50
Starred links: 1 amine or outer side, 2 acyl side, 3 side chain; linkers in the order of their positions; H or OH if unused. Positions of bridges follow the written chain, without caps; N, C: chain ends. Non-standard residues stand in square brackets, D forms with d. Residues, ends and D or L forms follow the SMILES beside them. *: point of attachment. hPhe(3,5-F2-4-CF3) = N[C@@H](CCc1cc(F)c(C(F)(F)F)c(F)c1)C(=O)O; hPhe(3-Cl-4-CF3) = N[C@@H](CCc1ccc(C(F)(F)F)c(Cl)c1)C(=O)O; hPhe(3-F,4-CF3) = N[C@@H](CCc1ccc(C(F)(F)F)c(F)c1)C(=O)O; NMePhe(4-CF3) = CN[C@@H](Cc1ccc(C(F)(F)F)cc1)C(=O)O; NMeAbu(4,4,4-F3) = CN[C@@H](CC(F)(F)F)C(=O)O; NMePhe(4-Me) = CN[C@@H](Cc1ccc(C)cc1)C(=O)O; NMeNle(6-CHF2) = CN[C@@H](CCCCC(F)F)C(=O)O; NMedβ3hAla = C[C@H](CC(=O)[*:2])N(C)[*:1]; Pro(4,4-F2) = O=C(O)[C@@H]1CC(F)(F)CN1; NMeCha = CN[C@@H](CC1CCCCC1)C(=O)O; NMeAhp(2) = CCCCC[C@H](NC)C(=O)O; NMeChg = CN[C@H](C(=O)O)C1CCCCC1; NMeD = CN[C@@H](CC(=O)O)C(=O)O; NMeL = CN[C@@H](CC(C)C)C(=O)O; NMeV = CN[C@H](C(=O)O)C(C)C; NMeA = CN[C@@H](C)C(=O)O; NMeAib = CNC(C)(C)C(=O)O; Piperidide = C1CCN(*)CC1; Pyrrolidide = C1CCN(*)C1; Ac5c = NC1(C(=O)O)CCCC1; Aze = O=C(O)[C@@H]1CCN1; Sar = CNCC(=O)O
recorded metric: IC50 (nM)
Report the value in nM with no unit label.

{"molecule": "CC[C@H](C)[C@@H]1NC(=O)[C@H](CC(C)C)N(C)C(=O)C[C@@H](C(=O)N2CCCCC2)N(C)C(=O)[C@H](CCCCC(F)F)N(C)C(=O)C2(CCCC2)NC(=O)[C@@H]2CCCN2C(=O)[C@H](CCc2ccc(C(F)(F)F)c(Cl)c2)NC(=O)CN(C)C(=O)[C@H](CC2CCCCC2)N(C)C(=O)CN(C)C(=O)CN(C)C1=O [Compound 653] ([NMeL]I[Sar][Sar][NMeCha][Sar][hPhe(3-Cl-4-CF3)]P[Ac5c][NMeNle(6-CHF2)][NMeD]-Piperidide; lactam N-11)", "IC50 (nM)": 44}

## Task State, in one line, measured IC50 of CC[C@H](C)[C@@H]1NC(=O)[C@H](CC(F)(F)F)N(C)C(=O)C[C@@H](C(=O)N2CCCC2)N(C)C(=O)[C@H](C2CCCCC2)N(C)C(=O)C2(CCCC2)NC(=O)[C@@H]2CC(F)(F)CN2C(=O)[C@H](CCc2cc(F)c(C(F)(F)F)c(F)c2)NC(=O)CN(C)C(=O)[C@H](Cc2ccc(C(F)(F)F)cc2)N(C)C(=O)CN(C)C(=O)CN(C)C1=O [Compound 1303] ([NMeAbu(4,4,4-F3)]I[Sar][Sar][NMePhe(4-CF3)][Sar][hPhe(3,5-F2-4-CF3)][Pro(4,4-F2)][Ac5c][NMeChg][NMeD]-Pyrrolidide; lactam N-11)
## Result 0.72

## Task State, in one line, measured IC50 of CC[C@H](C)[C@@H]1NC(=O)[C@H](C)N(C)C(=O)C[C@@H](C)N(C)C(=O)[C@H](CC(C)C)NC(=O)C(C)(C)N(C)C(=O)[C@H](CC(C)C)NC(=O)[C@H](CCc2ccc(C(F)(F)F)c(Cl)c2)NC(=O)CN(C)C(=O)[C@H](Cc2ccc(C)cc2)N(C)C(=O)[C@@H]2CCN2C(=O)[C@H](C)N(C)C1=O [Compound 1402] (cyclo([Aze][NMePhe(4-Me)][Sar][hPhe(3-Cl-4-CF3)]L[NMeAib]L[NMedβ3hAla][NMeA]I[NMeA]))
## Result 57

## Task State, in one line, measured IC50 of CCCCC[C@H]1C(=O)N(C)CC(=O)N[C@@H](CCc2ccc(C(F)(F)F)c(Cl)c2)C(=O)N2CCC[C@H]2C(=O)NC2(CCCC2)C(=O)N(C)[C@@H](C2CCCCC2)C(=O)N(C)[C@H](C(=O)N2CCCCC2)CC(=O)N(C)[C@@H](CC(C)C)C(=O)N[C@@H]([C@@H](C)CC)C(=O)N(C)CC(=O)N(C)CC(=O)N1C [Compound 1846] ([NMeL]I[Sar][Sar][NMeAhp(2)][Sar][hPhe(3-Cl-4-CF3)]P[Ac5c][NMeChg][NMeD]-Piperidide; lactam N-11)
## Result 1.1

## Task State, in one line, measured IC50 of CC[C@H](C)[C@@H]1NC(=O)[C@H](CC(C)C)N(C)C(=O)C[C@@H](C(=O)N2CCCC2)N(C)C(=O)[C@H](C(C)C)N(C)C(=O)C2(CCCC2)NC(=O)[C@@H]2CCCN2C(=O)[C@H](CCc2ccc(C(F)(F)F)c(F)c2)NC(=O)CN(C)C(=O)[C@H](CC2CCCCC2)N(C)C(=O)CN(C)C(=O)CN(C)C1=O [Compound 804] ([NMeL]I[Sar][Sar][NMeCha][Sar][hPhe(3-F,4-CF3)]P[Ac5c][NMeV][NMeD]-Pyrrolidide; lactam N-11)
## Result 0.99
